System: croton oil-induced oedema in mice ears
protocol: Croton oil ear test (oedema), topical
measurement context: croton oil ear test in mice; Italian institute data
measurement kind: log10(ID50) (log10 of the value in µg/ear)
Recorded ID50 (log10, µg/ear)

Solved entries (count: 4):
| molecule | log10(ID50) |
| --- | --- |
| C[C@@H]1O[C@@H](OC[C@H]2O[C@@H](Oc3c(-c4ccc(O)c(O)c4)oc4cc(O)cc(O)c4c3=O)[C@H](O)[C@@H](O)[C@@H]2O)[C@H](O)[C@H](O)[C@H]1O | 2.45 |
| COc1ccc2c(c1)c(CC(=O)O)c(C)n2C(=O)c1ccc(Cl)cc1 | 1.66 |
| O=c1c(O)c(-c2ccc(O)c(O)c2)oc2cc(O)cc(O)c12 | 1.78 |
| O=c1cc(-c2ccc(O)cc2)oc2cc(O[C@@H]3O[C@H](CO)[C@@H](O)[C@H](O)[C@H]3O)cc(O)c12 [Apigenin-7-glucoside] | 2.24 |

Next molecule, log10(ID50) to be filled in.
Task item: I have this molecule here, C[C@]12CCC(=O)C=C1CC[C@@H]1[C@@H]2[C@@H](O)C[C@@]2(C)[C@H]1CC[C@]2(O)C(=O)CO [Hydrocortisone] , and I need its recorded log10(ID50).
Reply: 0.52
